Tested on: MDA-MB-231
ASSAY_METHOD_TEXT: NCI tumour cell line growth inhibition, 48 h
Activity calls are given as the source filed them. No stated cut-off is given here; in the data, active = GI50 up to about 1.1 µM and inactive = higher.
Record form. Attribute: GI50. Fill in for each entry.

Field: example entries. Status: answers known.
# COMPOUND, READOUT_LABEL, MEASURED_VALUE
records = [
    ("O=[N+]([O-])c1ccc(/C(=N/c2ccccc2)SS/C(=N\\c2ccccc2)c2ccc([N+](=O)[O-])o2)o1", "GI50", "2.74 µM (inactive)"),
    ("C=CCC(CCC(C)=O)(C(=O)OCC)C(=O)OCC", "GI50", "> 100 µM (inactive)"),
    ("CCOP(=O)(OCC)/C(C#N)=C/c1ccnc2ccccc12", "GI50", "24.9 µM (inactive)"),
    ("O=C1c2ccccc2C(=O)c2c(NCC3CO3)ccc(NCC3CO3)c21 (centres undefined)", "GI50", "3.3 µM (inactive)"),
]

Below is a list of compounds. For each, state its recorded GI50.
1. COC(=O)c1ccccc1CC1Cc2ccc3c(c2C1=O)CCCC3 (centres undefined)
2. CC[n+]1[b-](C(C)(C)C)n(/N=C/C(C)(C)C)[b-](C(C)(C)C)[n+]1CC
3. CC1=C(/C=C/C(C)=C/C=C/C(C)=C/C(=O)OCC2OC(n3cc(F)c(=O)[nH]c3=O)CC2OC(=O)/C=C(C)/C=C/C=C(C)/C=C/C2=C(C)CCCC2(C)C)C(C)(C)CCC1 (centres undefined)
4. NC(Cc1ccc(N(CCCl)CCCl)cc1)C(=O)NC(CCC(=O)O)C(=O)O (centres undefined)
5. CCOC(=O)C1=C(C)NC(=O)NC1c1coc2cc(C)cc(C)c2c1=O (centres undefined)

["29.7 µM (inactive)", "> 100 µM (inactive)", "30.1 µM (inactive)", "> 100 µM (inactive)", "> 61.5 µM (inactive)"]

###

System: SK-MEL-2
ASSAY_METHOD_TEXT: NCI tumour cell line growth inhibition, 48 h
The source made the active and inactive calls. No stated cut-off is given here; in the data, active = GI50 up to about 1.1 µM and inactive = higher.
READOUT_LABEL: GI50

Field: example entries. Status: answers known.
# MOL, MEASURED_VALUE
rows = [
    ("Cc1ccc(S(=O)(=O)OI(O)CC(F)(F)F)cc1", "> 100 µM (inactive)"),
    ("O=C(O)Cc1cccc2c(=O)c3ccccc3oc12", "27.3 µM (inactive)"),
    ("CCOC(=O)/C(C(=O)Nc1ccc(F)cc1)=C(/N)N1CCOCC1", "> 100 µM (inactive)"),
    ("CCOC(=O)c1sc2nc(SC)nc3c2c1NCN3c1ccccc1Cl", "97.3 µM (inactive)"),
]

Below is a list of compounds. For each, state its recorded GI50.
1. O=S(=O)(Cc1ccccc1)c1nnc(S(=O)(=O)c2ccc(Cl)cc2)s1
2. N#Cc1cccc(/C=N/N/C(N)=N/O)c1

["22.8 µM (inactive)", "72.6 µM (inactive)"]

###

Test system: HOP-92
ASSAY_METHOD_TEXT: NCI tumour cell line growth inhibition, 48 h
The source made the active and inactive calls. No stated cut-off is given here; in the data, active = GI50 up to about 1.1 µM and inactive = higher.
Record form. Attribute: GI50. Fill in for each entry.

Field: example entries. Status: answers known.
# MOLECULE, GI50
measured = [
    ("CCOP(=O)(OCC)/C(C#N)=C/c1ccnc2ccccc12", "18.4 µM (inactive)"),
    ("COc1ccc2occ(CCC(=O)O)c2c1", "> 100 µM (inactive)"),
    ("CC1NC(=O)C2Cc3ccc(O)c(c3)Oc3ccc(cc3)C(O)C(C(=O)N2C)N(C)C(=O)C(C)NC(=O)C(Cc2ccc(O)cc2)N(C)C(=O)C(C)NC1=O (stereo not given)", "15.8 µM (inactive)"),
    ("CCOP(=O)(OCC)C(F)(F)CC1CCCCC1", "> 10 µM (inactive)"),
]

The reported value for Cc1cc(C)nc(NS(=O)(=O)c2ccc(NC(=O)c3ccc(Cl)c4c(Nc5ccc(S(=O)(=O)N=C(N)N)cc5)c5ccccc5nc34)cc2)n1 in terms of GI50 is 25.5 µM (inactive)

###

Record form. Attribute: GI50. Fill in for each entry.
System: Malme-3M
ASSAY_METHOD_TEXT: NCI tumour cell line growth inhibition, 48 h
The source made the active and inactive calls. Cut-off read from the data, not from the text of the source: active = GI50 up to about 1.1 µM and inactive = higher.

# MOLECULE, GI50
rows = [
    ("COc1ccc2c(c1)CC[C@@H]1[C@@H]2CC[C@]2(C)C(=O)/C(=C/c3ccc(C#N)cc3)C[C@@H]12", "> 100 µM (inactive)"),
    ("CCOC(=O)C1=C(C)NC(=O)NC1c1coc2cc(C)cc(C)c2c1=O (stereo not given)", "13 µM (inactive)"),
    ("O=C(NC(CS)C(=O)O)c1c2ccccc2nc2ccccc12 (stereo not given)", "15.2 µM (inactive)"),
    ("CC(=O)c1c(=O)n(-c2ccc(C)cc2)c(O)c2c(N)n[nH]c12", "> 100 µM (inactive)"),
]

Switching to the query record.
The reported value for COC(=O)CCCc1ccc2c(c1)CCC2 in terms of GI50 is > 100 µM (inactive)

###

Tested on: MOLT-4
ASSAY_METHOD_TEXT: NCI tumour cell line growth inhibition, 48 h
Active and inactive are the calls of the source. Rule as the data show it: active = GI50 up to about 1.1 µM and inactive = higher.
Please state which outcome applies, choosing from active, inactive

The following molecules have reported results that may help.
# MOLECULE, ASSAY_SYSTEM, CATEGORY_LABEL
records = [
    ("Cc1ccc(/N=N/C(=N/c2ccccc2)c2ccc(N(CCC#N)CCC#N)cc2)cc1", "MOLT-4", "inactive"),
    ("C[C@]12CCC3C4=C(CCC3C1CCC2=O)C(=O)[C@H]1O[C@H]1C4=O (stereo not given in full)", "MOLT-4", "active"),
    ("OCC(O)C(OC1OC(CO)C(O)C(O)C1O)c1nn(-c2ccccc2)c2nc3cc(Cl)c(Cl)cc3cc12 (stereo not given)", "MOLT-4", "inactive"),
]

Entry O=C(O)c1ccccc1.[Ag] : call = ?
inactive

Entry N#Cc1ccccc1NC(=O)/C(=N\N)C(C(=O)c1ccncc1)C1OC(=O)c2ccccc21 (stereo not given) : call = ?
inactive

Entry N#C[C@](CO)(NC(=O)OCc1ccccc1)C(F)F : call = ?
inactive

Entry CCc1cn(C2CC(CO)C(CO)S2)c(=O)[nH]c1=O (stereo not given) : call = ?
inactive

Entry O=c1c2cc(Br)ccc2nc(-c2ccccc2)n1NCC1(O)OCC(O)C(O)C1O (stereo not given) : call = ?
inactive

Entry O=C(O)CCC(=O)OCN1C(=O)C2C3C=CC(C2C1=O)C1C2C(=O)N(COC(=O)CCC(=O)O)C(=O)C2C31 (stereo not given) : call = ?
inactive

Entry COC(=O)C(=O)C(C(=O)C(=O)Nc1cc(Cl)c(Cl)cc1Cl)c1nc2ccc([N+](=O)[O-])cc2nc1O (stereo not given) : call = ?
inactive

###

Test system: SR
ASSAY_METHOD_TEXT: NCI tumour cell line growth inhibition, 48 h
Active and inactive are the calls of the source. Cut-off read from the data, not from the text of the source: active = GI50 up to about 1.1 µM and inactive = higher.
Please state which outcome applies, choosing from T for active, F for inactive

Entry CC1(C)C(CC(=O)O)CCCC1CC(=O)O (stereo not given) : call = ?
F

Entry COC(=O)[C@]12CCC(C)(C)C[C@H]1C1=CC[C@@H]3[C@@]4(C)CC[C@H](OC5OC(CO)C(O)C(O)C5OC5OC(CO)C(O)C(O)C5O)C(C)(C)[C@@H]4CC[C@@]3(C)[C@]1(C)CC2 (stereo not given in full) : call = ?
F

Entry Cc1ccc(/N=N/C(=N/c2ccccc2)c2ccc(N(CCC#N)CCC#N)cc2)cc1 : call = ?
F

Entry COc1ccc2c(c1)CC1c3c(ccc(OC)c3O)CC2N1C (stereo not given) : call = ?
F

Entry Nc1nc(Cl)cc(NCCCCCNc2cc(Cl)nc(N)n2)n1 : call = ?
F

Entry COc1cc2nc(-c3cccs3)nc(N3CCN(c4ccccc4)CC3)c2cc1OC : call = ?
F

Entry c1ccc(C(CCN2CC3CCC(CC3)C2)c2ccccc2)cc1 : call = ?
F

Entry NN : call = ?
F

Entry C/C(=N\NC(=S)N1CCCCCCCCCCCC1)c1ccccn1 : call = ?
T

Entry Cc1ccc2c(c1)nc1n2C(N)=Nc2ccccc2S1 : call = ?
F

###

System: CAKI-1
ASSAY_METHOD_TEXT: NCI tumour cell line growth inhibition, 48 h
Activity calls are given as the source filed them. No stated cut-off is given here; in the data, active = GI50 up to about 1.1 µM and inactive = higher.
READOUT_LABEL: GI50

Field: example entries. Status: answers known.
# COMPOUND, ASSAY_SYSTEM, GI50
rows = [
    ("C#CCN1CCN(C(=S)N/N=C(\\C)c2ccccn2)CC1", "CAKI-1", "1.42 µM (inactive)"),
    ("O=C(O)C1=NN=C(C(=O)O)NN1", "CAKI-1", "> 100 µM (inactive)"),
    ("COc1ccc(C[N+]23C(CC[C@H]2c2ccccc2)CC[C@H]3c2ccccc2)cc1 (stereo partly specified)", "CAKI-1", "75.5 µM (inactive)"),
    ("O=C(O)[C@H](Cc1ccccc1)NCCN1CCC[C@H]1C(=O)O", "CAKI-1", "> 100 µM (inactive)"),
    ("CCOC(=O)c1nc2cc(F)cc(F)c2[nH]c1=O", "CAKI-1", "> 100 µM (inactive)"),
]

Switching to the query record.
The reported value for CC(C)(C)c1cc([N+](=O)[O-])cc([N+](=O)[O-])c1O [DINOTERB] in terms of GI50 is 5.6 µM (inactive)
